All values here come from patent US20250353842A1.

Give measured IC50 for each item. Keep answers brief.
target: CDK12 complexed with Cyclin K (Homo sapiens (Human), UniProt Q9NYV4); assay: CDK enzymatic assay (HTRF, LANCE Ultra kinase assay); conditions: 60 minutes pre-incubation, 1 mM ATP
Sequence (Q9NYV4 whole entry): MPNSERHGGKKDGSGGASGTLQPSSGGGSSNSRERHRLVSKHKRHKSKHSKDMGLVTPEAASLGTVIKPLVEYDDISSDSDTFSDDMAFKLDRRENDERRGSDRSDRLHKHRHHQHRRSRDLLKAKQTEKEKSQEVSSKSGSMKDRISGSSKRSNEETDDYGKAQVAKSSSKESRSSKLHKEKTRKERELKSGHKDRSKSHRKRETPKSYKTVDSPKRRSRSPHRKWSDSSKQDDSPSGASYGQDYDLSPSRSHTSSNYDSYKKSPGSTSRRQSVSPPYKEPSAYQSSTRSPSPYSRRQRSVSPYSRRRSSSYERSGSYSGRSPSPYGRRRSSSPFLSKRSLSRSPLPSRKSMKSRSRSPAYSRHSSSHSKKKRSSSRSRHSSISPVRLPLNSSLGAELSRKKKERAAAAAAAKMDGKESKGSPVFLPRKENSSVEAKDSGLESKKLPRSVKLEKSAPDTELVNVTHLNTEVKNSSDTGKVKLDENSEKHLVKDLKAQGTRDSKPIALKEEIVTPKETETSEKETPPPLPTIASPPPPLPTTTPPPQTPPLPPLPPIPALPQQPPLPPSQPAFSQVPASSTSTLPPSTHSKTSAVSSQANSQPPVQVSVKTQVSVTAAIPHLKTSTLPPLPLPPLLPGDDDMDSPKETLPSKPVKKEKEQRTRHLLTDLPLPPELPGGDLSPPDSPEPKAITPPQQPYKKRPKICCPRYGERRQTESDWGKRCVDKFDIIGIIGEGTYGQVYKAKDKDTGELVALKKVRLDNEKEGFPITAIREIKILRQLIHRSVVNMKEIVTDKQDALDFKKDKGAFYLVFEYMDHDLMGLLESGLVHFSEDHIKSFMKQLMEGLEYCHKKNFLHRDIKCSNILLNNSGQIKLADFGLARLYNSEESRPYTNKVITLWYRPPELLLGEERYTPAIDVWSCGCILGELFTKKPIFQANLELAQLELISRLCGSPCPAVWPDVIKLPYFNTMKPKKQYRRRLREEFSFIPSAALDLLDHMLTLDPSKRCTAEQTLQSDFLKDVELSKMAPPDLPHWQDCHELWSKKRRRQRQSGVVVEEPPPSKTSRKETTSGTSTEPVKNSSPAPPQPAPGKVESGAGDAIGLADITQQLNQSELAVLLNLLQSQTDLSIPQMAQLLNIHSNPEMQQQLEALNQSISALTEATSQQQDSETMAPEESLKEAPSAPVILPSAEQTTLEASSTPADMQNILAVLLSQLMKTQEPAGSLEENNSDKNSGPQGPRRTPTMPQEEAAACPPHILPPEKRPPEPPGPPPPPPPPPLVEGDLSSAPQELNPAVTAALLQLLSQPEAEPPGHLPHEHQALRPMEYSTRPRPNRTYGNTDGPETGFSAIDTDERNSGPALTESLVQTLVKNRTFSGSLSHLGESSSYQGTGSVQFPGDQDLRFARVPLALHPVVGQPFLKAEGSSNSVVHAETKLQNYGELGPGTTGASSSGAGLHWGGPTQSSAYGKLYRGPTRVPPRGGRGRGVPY
Sequence (O75909 whole entry partner): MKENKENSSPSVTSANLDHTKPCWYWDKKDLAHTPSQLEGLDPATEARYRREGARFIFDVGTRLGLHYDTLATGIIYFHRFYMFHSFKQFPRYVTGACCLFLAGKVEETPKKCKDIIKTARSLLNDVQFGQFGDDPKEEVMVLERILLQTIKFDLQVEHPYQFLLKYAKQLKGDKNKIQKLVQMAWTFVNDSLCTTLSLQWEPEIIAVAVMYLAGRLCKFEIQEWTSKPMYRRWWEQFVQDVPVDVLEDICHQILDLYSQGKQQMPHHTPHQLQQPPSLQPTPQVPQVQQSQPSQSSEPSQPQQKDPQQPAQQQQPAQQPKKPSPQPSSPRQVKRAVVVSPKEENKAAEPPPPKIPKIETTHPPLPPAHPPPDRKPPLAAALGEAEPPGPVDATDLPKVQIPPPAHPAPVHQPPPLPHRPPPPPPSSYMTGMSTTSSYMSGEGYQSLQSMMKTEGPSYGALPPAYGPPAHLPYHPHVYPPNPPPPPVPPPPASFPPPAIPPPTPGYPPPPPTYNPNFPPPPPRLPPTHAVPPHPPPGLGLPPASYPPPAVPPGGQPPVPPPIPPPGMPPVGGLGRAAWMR

Task: Short answer please: IC50, CDK12 complexed with Cyclin K (Homo sapiens (Human), UniProt Q9NYV4), entry `FC(F)Cn1cc(-c2nc(N[C@@H]3CCC[C@H](n4cnc5cc(-c6cn[nH]c6)cnc54)C3)ncc2C(F)(F)F)cn1`
Output: < 50 nM

Task: Short answer please: IC50, CDK12 complexed with Cyclin K (Homo sapiens (Human), UniProt Q9NYV4), entry `Cc1cc(C#N)cc2ncn([C@H]3CCC[C@@H](Nc4ncc(C#N)c(-c5cnn(CC(F)F)c5)n4)C3)c12`
Output: < 50 nM

Task: Short answer please: IC50, CDK12 complexed with Cyclin K (Homo sapiens (Human), UniProt Q9NYV4), entry `CC(C)n1cc(-c2nc(N[C@@H]3CCC[C@H](n4cnc5cc(C#N)cnc54)C3)ncc2C#N)cn1`
Output: < 50 nM

Task: Short answer please: IC50, CDK12 complexed with Cyclin K (Homo sapiens (Human), UniProt Q9NYV4), entry `Cn1nccc1-c1nc(N[C@@H]2CCC[C@H](n3cnc4cccnc43)C2)ncc1C#N`
Output: > 500 nM

Task: Short answer please: IC50, CDK12 complexed with Cyclin K (Homo sapiens (Human), UniProt Q9NYV4), entry `Cc1ccnc2c1ncn2[C@H]1CCC[C@@H](Nc2ncc(C#N)c(-c3cnn(CC(F)F)c3)n2)C1`
Output: < 50 nM

Task: Short answer please: IC50, CDK12 complexed with Cyclin K (Homo sapiens (Human), UniProt Q9NYV4), entry `N#Cc1cnc2c(c1)ncn2[C@H]1CCC[C@@H](Nc2ncc(Cl)c(-c3cnn(CC(F)F)c3)n2)C1`
Output: < 50 nM

Task: Short answer please: IC50, CDK12 complexed with Cyclin K (Homo sapiens (Human), UniProt Q9NYV4), entry `N#Cc1cnc(N[C@@H]2CCC[C@H](n3cnc4cncc(C#N)c43)C2)nc1-c1cnn(CCO)c1`
Output: < 50 nM

Task: Short answer please: IC50, CDK12 complexed with Cyclin K (Homo sapiens (Human), UniProt Q9NYV4), entry `N#Cc1cnc(N[C@@H]2CCC[C@H](n3cnc4cccnc43)C2)nc1-c1cnn2c1OCCC2`
Output: 50 to 500 nM

Task: Short answer please: IC50, CDK12 complexed with Cyclin K (Homo sapiens (Human), UniProt Q9NYV4), entry `Cc1nccc2c1ncn2[C@H]1CCC[C@@H](Nc2ncc(C#N)c(-c3cnn(CC(F)F)c3)n2)C1`
Output: < 50 nM

Task: Short answer please: IC50, CDK12 complexed with Cyclin K (Homo sapiens (Human), UniProt Q9NYV4), entry `N#Cc1cnc(N[C@@H]2CCC[C@H](n3cnc4cncc(C#N)c43)C2)nc1-c1cnn(C2CC2)c1`
Output: < 50 nM

Task: Short answer please: IC50, CDK12 complexed with Cyclin K (Homo sapiens (Human), UniProt Q9NYV4), entry `CN(C)c1cnc2c(c1)ncn2[C@H]1CCC[C@@H](Nc2ncc(C(F)(F)F)c(-c3cnn(CC(F)F)c3)n2)C1`
Output: < 50 nM

Task: Short answer please: IC50, CDK12 complexed with Cyclin K (Homo sapiens (Human), UniProt Q9NYV4), entry `CCn1cc(-c2nc(N[C@@H]3CCC[C@H](n4cnc5cc(C#N)cnc54)C3)ncc2C#N)cn1`
Output: < 50 nM

Task: Short answer please: IC50, CDK12 complexed with Cyclin K (Homo sapiens (Human), UniProt Q9NYV4), entry `N#Cc1cnc(N[C@@H]2CCC[C@H](n3cnc4cncc(Cl)c43)C2)nc1-c1cnn(CC(F)F)c1`
Output: < 50 nM

Task: Short answer please: IC50, CDK12 complexed with Cyclin K (Homo sapiens (Human), UniProt Q9NYV4), entry `N#Cc1cnc2c(c1)ncn2[C@H]1CCC[C@@H](Nc2ncc(C#N)c(-c3cnn(-c4ccccc4)c3)n2)C1`
Output: < 50 nM

Task: Short answer please: IC50, CDK12 complexed with Cyclin K (Homo sapiens (Human), UniProt Q9NYV4), entry `Cn1ncc(-c2nc(N[C@@H]3CCC[C@H](n4cnc5cccnc54)C3)ncc2C#N)c1C#N`
Output: 50 to 500 nM

* * *

Give measured pIC50 for each item. Keep answers brief.
molecular target: CDK12 complexed with Cyclin K (Homo sapiens (Human), UniProt Q9NYV4); experiment: CDK enzymatic assay (HTRF, LANCE Ultra kinase assay); conditions: 60 minutes pre-incubation, 1 mM ATP
pIC50: −log10 of the molar value.

Task: Please give the measured pIC50 for this molecule: `N#Cc1ccc2c(ccn2[C@H]2CCC[C@@H](Nc3ncc(C(F)(F)F)c(-c4cnn(CC(F)F)c4)n3)C2)c1`
Output: 6.30 to 7.30

Task: Please give the measured pIC50 for this molecule: `N#Cc1cnc2c(c1)ncn2[C@H]1CCC[C@@H](Nc2ncc(C#N)c(-c3cnn(C4CC4)c3)n2)C1`
Output: > 7.30

Task: Please give the measured pIC50 for this molecule: `C=C(C)c1cnc2c(c1)ncn2[C@H]1CCC[C@@H](Nc2ncc(C(F)(F)F)c(-c3cnn(CC(F)F)c3)n2)C1`
Output: > 7.30

Task: Please give the measured pIC50 for this molecule: `Cc1nn(C)cc1-c1nc(N[C@@H]2CCC[C@H](n3cnc4cccnc43)C2)ncc1C#N`
Output: < 6.30

Task: Please give the measured pIC50 for this molecule: `FC(F)Cn1cc(-c2nc(N[C@@H]3CCC[C@H](n4cnc5cc(C(F)(F)F)cnc54)C3)ncc2C(F)(F)F)cn1`
Output: > 7.30

Task: Please give the measured pIC50 for this molecule: `N#Cc1cnc2c(ccn2[C@H]2CCC[C@@H](Nc3ncc(C(F)(F)F)c(-c4cnn(CC(F)F)c4)n3)C2)c1`
Output: > 7.30

Task: Please give the measured pIC50 for this molecule: N#Cc1cnc(N[C@@H]2CCC[C@H](n3cnc4cccc(C#N)c43)C2)nc1-c1cnn(CC(F)F)c1 [13/13A]
Output: > 7.30

* * *

target: CDK12 complexed with Cyclin K (Homo sapiens (Human)); assay: CDK enzymatic assay (HTRF, LANCE Ultra kinase assay); conditions: 60 minutes pre-incubation, 1 mM ATP
pIC50: −log10 of the molar value.
readout-name: pIC50

Task: Please give the measured pIC50 for this compound: N#Cc1cnc(N[C@@H]2CCC[C@H](n3cnc4cncc(C#N)c43)C2)nc1-c1cnn(CC(F)F)c1 [Example 31]
Output: > 7.30

Task: Please give the measured pIC50 for this compound: CC(C)n1cnc(-c2nc(N[C@@H]3CCC[C@H](n4cnc5cccnc54)C3)ncc2C#N)c1 [Example 27]
Output: > 7.30

Task: Please give the measured pIC50 for this compound: N#Cc1cc2c(cn1)ncn2[C@H]1CCC[C@@H](Nc2ncc(C#N)c(-c3cnn(CC(F)F)c3)n2)C1 [Example 46]
Output: > 7.30

Task: Please give the measured pIC50 for this compound: Cn1cc(-c2cnc(N[C@@H]3CCC[C@H](n4cnc5cc(C#N)cnc54)C3)nc2-c2cnn(CC(F)F)c2)cn1 [Example 56]
Output: < 6.30

Task: Please give the measured pIC50 for this compound: Cc1ncc(C#N)c2c1ncn2[C@H]1CCC[C@@H](Nc2ncc(C#N)c(-c3cnn(CC(F)F)c3)n2)C1 [Example 48]
Output: > 7.30

Task: Please give the measured pIC50 for this compound: N#Cc1cnc(N[C@@H]2CCC[C@H](n3cnc4cnc(Cl)c(Br)c43)C2)nc1-c1cnn(CC(F)F)c1 [Example 42]
Output: > 7.30

Task: Please give the measured pIC50 for this compound: FC(F)Cn1cc(-c2nc(N[C@@H]3CCC[C@H](n4cnc5cc(-c6cccnc6)cnc54)C3)ncc2C(F)(F)F)cn1 [Example 82]
Output: > 7.30

* * *

Give measured pIC50 for each item. Keep answers brief.
biological target: CDK12 complexed with Cyclin K (Homo sapiens (Human)); test: CDK enzymatic assay (HTRF, LANCE Ultra kinase assay); settings: 60 minutes pre-incubation, 1 mM ATP
pIC50: −log10 of the molar value.

Task: Please give the measured pIC50 for this molecule: Cc1c(-c2nc(N[C@@H]3CCC[C@H](n4cnc5cc(C#N)cnc54)C3)ncc2C#N)nnn1C [28/28A]
Output: > 7.30

Task: Please give the measured pIC50 for this molecule: Cc1ccncc1-c1cnc2c(c1)ncn2[C@H]1CCC[C@@H](Nc2ncc(C#N)c(-c3cnn(CC(F)F)c3)n2)C1 [Example 77]
Output: 6.30 to 7.30

Task: Please give the measured pIC50 for this molecule: Cn1cc(-c2nc(N[C@@H]3CCC[C@H](n4cnc5cc(C#N)cnc54)C3)ncc2C#N)cn1 [Example 64]
Output: > 7.30

Task: Please give the measured pIC50 for this molecule: FC(F)Cn1cc(-c2nc(N[C@@H]3CCC[C@H](n4cnc5cc(N6CCCC6)cnc54)C3)ncc2C(F)(F)F)cn1 [Example 83]
Output: > 7.30

Task: Please give the measured pIC50 for this molecule: N#Cc1cnc(N[C@@H]2CCC[C@H](n3cnc4cc(F)cc(Br)c43)C2)nc1-c1cnn(CC(F)F)c1 [Example 40]
Output: > 7.30

Task: Please give the measured pIC50 for this molecule: N#Cc1cnc(N[C@@H]2CCC[C@H](n3cnc4cc(F)cc(C#N)c43)C2)nc1-c1cnn(CC(F)F)c1 [Example 49]
Output: > 7.30

Task: Please give the measured pIC50 for this molecule: CC(C)(O)Cn1cc(-c2nc(N[C@@H]3CCC[C@H](n4cnc5cc(C#N)cnc54)C3)ncc2C#N)cn1 [Example 58]
Output: > 7.30

Task: Please give the measured pIC50 for this molecule: N#Cc1cc(C#N)c2c(c1)ncn2[C@H]1CCC[C@@H](Nc2ncc(C#N)c(-c3cnn(CC(F)F)c3)n2)C1 [Example 50]
Output: > 7.30

Task: Please give the measured pIC50 for this molecule: Cc1cc(F)cc2ncn([C@H]3CCC[C@@H](Nc4ncc(C#N)c(-c5cnn(CC(F)F)c5)n4)C3)c12 [Example 54]
Output: > 7.30

Task: Please give the measured pIC50 for this molecule: N#Cc1ccc2ncn([C@H]3CCC[C@@H](Nc4ncc(C#N)c(-c5cnn(CC(F)F)c5)n4)C3)c2c1 [Example 43]
Output: > 7.30

Task: Please give the measured pIC50 for this molecule: N#Cc1cnc2c(c1)ncn2[C@H]1CCC[C@@H](Nc2ncc(C#N)c(-c3cnn(C4CNC4)c3)n2)C1 [Example 59]
Output: > 7.30

Task: Please give the measured pIC50 for this molecule: N#Cc1cncc2ncn([C@H]3CCC[C@@H](Nc4ncc(C(F)(F)F)c(-c5cnn(CC(F)F)c5)n4)C3)c12 [Example 52]
Output: > 7.30

Task: Please give the measured pIC50 for this molecule: N#Cc1cc(C(F)(F)F)cc2ncn([C@H]3CCC[C@@H](Nc4ncc(C(F)(F)F)c(-c5cnn(CC(F)F)c5)n4)C3)c12 [Example 51]
Output: 6.30 to 7.30
